Listed here: items and their measured Anti-CD28 Fab signal (phage binding ELISA).
- study_system: T1, Anti-CD28 Fab (SEQ ID NOs: 696, 697)
- T1 construct: In the phage ELISA the Fab was biotinylated and captured on neutravidin coated plates
- T1 sequence (VH, as listed by the source, chain 1 of 2): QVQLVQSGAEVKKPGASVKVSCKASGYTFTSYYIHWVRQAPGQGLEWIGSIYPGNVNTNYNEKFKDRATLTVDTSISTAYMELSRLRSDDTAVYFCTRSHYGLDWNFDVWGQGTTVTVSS
- T1 sequence (VL, as listed by the source, chain 2 of 2): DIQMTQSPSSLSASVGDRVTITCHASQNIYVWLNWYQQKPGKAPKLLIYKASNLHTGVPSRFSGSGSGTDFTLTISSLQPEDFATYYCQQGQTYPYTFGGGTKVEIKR
- protocol_details: phage ELISA; biotinylated anti-CD28 Fab on neutravidin plate, clonal phage supernatant, anti-M13 HRP detection;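 note: crude supernatants of single phage clones picked after panning were screened for binding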
Form field (numeric): enter value without unit.

Example binders with recorded Anti-CD28 Fab signal (phage binding ELISA):
YCAGHLPQYIQKCL (Tested as clonal phage supernatant) [Phage-1041]: 1.44
YCEGHLPQYMTKCI (Tested as clonal phage supernatant) [Phage-1040]: 1.44
YCDGHLPEYMNQCL (Tested as clonal phage supernatant) [Phage-1047]: 1.44
YCDGHNFQYMEKCL (Tested as clonal phage supernatant) [Phage-1048]: 1.44
YCDGHAEEYMAKCL (Tested as clonal phage supernatant) [Phage-1038]: 1.45

// Anti-CD28 Fab signal (phage binding ELISA) lookup, key: YCDGHSLQYMSKCL (Tested as clonal phage supernatant) [Phage-1039]
1.45

If you can, please state the reported Anti-CD28 Fab signal (phage binding ELISA) value of YCEGHLAIYQKKCL (Tested as clonal phage supernatant) [Phage-1042] .
1.44
